# study_target: second (BD2: amino acids E352-E168) bromodomain of BRD4 (Homo sapiens)
# Construct: protocol
# test_name: TR-FRET bromodomain binding assay, BRD4 BD2
# protocol_conditions: TR-FRET assay protocol (A-G, compound concentration range); Ki calculated from IC50, probe Kd and probe concentration; read-out: TR-FRET Binding Ki: BRD4 (BDII_E352-M457)
pKi: −log10 of the molar value.
Note to self: class = bucket of pKi, per range 1 = under 6, range 2 = from 6 up to 7, range 3 = 7 and over

Examples with answers:
INSERT INTO measurements (compound, study_target, assigned_label) VALUES
  ('CCCS(=O)(=O)Nc1ccc(Oc2ccc(F)cc2F)c(-c2cn(C)c(=O)cc2OCC)c1', 'second (BD2: amino acids E352-E168) bromodomain of BRD4 (Homo sapiens)', 'range 3'),
  ('CC(C)Cc1ccc(-c2cc(=O)n(C)nc2-c2ccccc2Oc2ccccc2)cc1', 'second (BD2: amino acids E352-E168) bromodomain of BRD4 (Homo sapiens)', 'range 1'),
  ('CN(C)C(=O)c1ccc(-c2cc(=O)n(C)nc2-c2ccccc2Oc2ccccc2)cc1', 'second (BD2: amino acids E352-E168) bromodomain of BRD4 (Homo sapiens)', 'range 2'),
  ('CCS(=O)(=O)Nc1ccc(Oc2ccc(F)cc2F)c(-c2cn(C)c(=O)cc2OCC2(C)CC2(F)F)c1 (stereo not drawn)', 'second (BD2: amino acids E352-E168) bromodomain of BRD4 (Homo sapiens)', 'range 3');

For the next question, use this compound.
For this compound, which bin applies? CN(C)c1ncc(-c2cc(=O)n(C)nc2-c2ccccc2Oc2ccccc2)cn1
range 2
